Tested on: Plasmodium falciparum parasite
measurement-notes: Whole cell assay: whole cell activity against the parasite
Format: cell-based
study-conditions: Plasmodium falciparum
pIC50: −log10 of the molar value. Counter-ions that a name gives are not always drawn.
endpoint-name: pIC50

CC1CCC(N(NC(=O)c2ccc(CN3CCN(CC4CCN(C)CC4)CC3)cc2)c2nc(C#N)ncc2Br)C1 (mixture of isomers) [Example 5, trifluoroacetate]    7.82 to 8.60
N#Cc1ncc(Cl)c(N(NC(=O)c2ccc(CN3CCC(O)CC3)cc2)C2CCCC2)n1 [Example 70, trifluoroacetate]    6.82 to 7.82
C[C@@H]1CCC[C@H]1N(NC(=O)c1ccc(CN2CCN(C)CC2)cc1)c1nc(C#N)ncc1Br (racemic) [Example 3]    7.82 to 8.60
N#Cc1ncc(Br)c(N(NC(=O)c2cccc(CN3CCC(N4CCOCC4)CC3)c2)C2CCCCC2)n1 [Example 24, trifluoroacetate]    7.82 to 8.60
CN1CCN(C2CCN(Cc3cccc(C(=O)NN(c4nc(C#N)ncc4Br)C4CCCC4)c3)CC2)CC1 [Example 11, trifluoroacetate]    7.82 to 8.60

Now look at this entry.
Record N#Cc1ncc(Br)c(N(NC(=O)c2ccc(CN3CCC(N4CCOCC4)CC3)cc2)C2CCCCC2)n1 [Example 18, trifluoroacetate] . Reported pIC50: 6.82 to 7.82

* * *

Tested on: Plasmodium falciparum parasite
measurement-notes: Whole cell assay: whole cell activity against the parasite
Type: cell-based
study-conditions: Plasmodium falciparum
pIC50: −log10 of the molar value. Where a name gives a salt, the structure may show the parent alone.
endpoint-name: pIC50

# pIC50 measured on Plasmodium falciparum parasite for item CN1CCN(Cc2ccc(C(=O)NN(c3nc(C#N)ncc3Br)C3CCOCC3)cc2)CC1 [Example 42, trifluoroacetate] = 6.82 to 7.82

Entry C[C@@H]1CCC[C@H]1N(NC(=O)c1ccc(F)cc1)c1nc(C#N)ncc1Br (racemic) [Example 43] , tested on Plasmodium falciparum parasite, has a reported pIC50 of 6.82 to 7.82

Item CCN(C)Cc1ccc(C(=O)NN(c2nc(C#N)ncc2Cl)C2CCCC2)cc1 [Example 74, trifluoroacetate] was tested on Plasmodium falciparum parasite; the reported pIC50 is 6.82 to 7.82

GET /values?item= CC(C)CCN(C)Cc1ccc(C(=O)NN(c2nc(C#N)ncc2Cl)C2CCCC2)cc1 [Example 63, trifluoroacetate] &system= Plasmodium falciparum parasite returns pIC50: 7.82 to 8.60

* * *

Test system: Plasmodium falciparum parasite
measurement-notes: Whole cell assay: whole cell activity against the parasite
Assay type: cell-based
study-conditions: Plasmodium falciparum
pIC50: −log10 of the molar value. Where a name gives a salt, the structure may show the parent alone.
pIC50 values by entry

CN1CCN(Cc2ccc(-c3ccc(C(=O)NN(c4nc(C#N)ncc4Br)C4CCCCC4)cn3)cc2)CC1 [Example 44, trifluoroacetate]    6.82 to 7.82

Recorded pIC50 (molecule CCCCCCN(C)Cc1ccc(C(=O)NN(c2nc(C#N)ncc2Cl)C2CCCC2)cc1 [Example 56, trifluoroacetate] ): 6.82 to 7.82

Reported pIC50 of CN(CCC1OCCO1)Cc1ccc(C(=O)NN(c2nc(C#N)ncc2Cl)C2CCCC2)cc1 [Example 61, trifluoroacetate] : 6.82 to 7.82

The value of pIC50 measured for the molecule CN1CCC(CN2CCN(Cc3cccc(C(=O)NN(c4nc(C#N)ncc4Br)C4CCCCC4)c3)CC2)CC1 [Example 28, trifluoroacetate] turned out to be 7.82 to 8.60

In plain terms, CN1CCCC(CN2CCN(Cc3cccc(C(=O)NN(c4nc(C#N)ncc4Br)C4CCCCC4)c3)CC2)C1 (stereo not drawn) [Example 27, trifluoroacetate] has a documented pIC50 of 7.82 to 8.60

Input C[C@H]1CCC[C@H]1N(NC(=O)c1ccc(CN2CCN(C)CC2)cc1)c1nc(C#N)ncc1Br (racemic) . Output pIC50: 6.82 to 7.82

* * *

Tested on: Plasmodium falciparum parasite
measurement-notes: Whole cell assay: whole cell activity against the parasite
Format: cell-based
study-conditions: Plasmodium falciparum
pIC50: −log10 of the molar value. Where a name gives a salt, the structure may show the parent alone.
The entries below are paired with their reported pIC50.

Look over these answered cases.
CN(Cc1ccc(C(=O)NN(c2nc(C#N)ncc2Cl)C2CCCC2)cc1)C1CCCCC1 [Example 53, trifluoroacetate]    7.82 to 8.60
CCCN1CCN(c2ccc(C(=O)NN(c3nc(C#N)ncc3Br)C3CCCCC3)cc2)CC1 [Example 80, trifluoroacetate]    6.82 to 7.82
CN1CCN(C(=O)C2CCN(Cc3cccc(C(=O)NN(c4nc(C#N)ncc4Br)C4CCCC4)c3)CC2)CC1 [Example 12, trifluoroacetate]    7.82 to 8.60
CN(Cc1ccc(C(=O)NN(c2nc(C#N)ncc2Cl)C2CCCC2)cc1)C(C)(C)Cc1ccccc1 [Example 71, trifluoroacetate]    6.82 to 7.82
CN1CCN(C2CCN(Cc3ccc(C(=O)NN(c4nc(C#N)ncc4Br)C4CCCCC4)cc3)CC2)CC1 [Example 17, trifluoroacetate]    7.82 to 8.60

Entry N#Cc1ncc(Br)c(N(NC(=O)c2cccc(CN3CCC(N4CCOCC4)CC3)c2)C2CCCC2)n1 [Example 13, trifluoroacetate] under Plasmodium falciparum parasite had pIC50 of 6.82 to 7.82

* * *

measured-on: UniProtKB Q8I6U4
measurement-notes: Falcipain-2 enzymatic assay (fluorogenic peptide substrate, quenched endpoint read)
Format: biochemical
pIC50: −log10 of the molar value. Structures can show the parent of a compound that is named as a salt.
endpoint-name: pIC50

Example results:
CN1CCN(Cc2ccc(C(=O)NN(c3nc(C#N)ncc3Cl)C3CCCC3)cc2)CC1 [Example 50, trifluoroacetate]    8.60 to 9.00
CN1CCN(Cc2ccc(C(=O)NN(c3nc(C#N)ncc3Br)C3CCOCC3)cc2)CC1 [Example 42, trifluoroacetate]    8.60 to 9.00

Next up:
// pIC50 value for CN1CCN(C(=O)C2CCN(Cc3ccc(C(=O)NN(c4nc(C#N)ncc4Cl)C4CCOCC4)cc3)CC2)CC1 [Example 36] : 8.60 to 9.00

* * *

measured-on: Falcipain-3 (Plasmodium falciparum)
Sequence (Q8IIL0 243-492): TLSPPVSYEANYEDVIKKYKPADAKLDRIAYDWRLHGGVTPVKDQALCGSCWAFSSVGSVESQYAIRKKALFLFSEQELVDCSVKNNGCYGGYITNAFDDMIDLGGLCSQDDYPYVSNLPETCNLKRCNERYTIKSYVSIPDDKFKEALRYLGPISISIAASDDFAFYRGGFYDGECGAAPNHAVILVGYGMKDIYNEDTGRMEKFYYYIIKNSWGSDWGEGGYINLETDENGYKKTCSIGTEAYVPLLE
measurement-notes: Falcipain-3 enzymatic assay (fluorogenic peptide substrate, quenched endpoint read)
Assay type: biochemical
study-conditions: parasitic recombinant enzyme, 30 uM H-D-VLR-AFC, pH 5.5, quenched after 60 minutes; read-out: Falcipain-3 (IC50)
pIC50: −log10 of the molar value. Structures can show the parent of a compound that is named as a salt.
endpoint-name: pIC50

CC(=O)N1CCC(N(NC(=O)c2ccc(CN3CCN(C)CC3)cc2)c2nc(C#N)ncc2Br)CC1 [Example 37, trifluoroacetate]    6.82 to 7.82

Continue with the molecule presented below.
Recorded pIC50 (molecule CC(C)CCN(C)Cc1ccc(C(=O)NN(c2nc(C#N)ncc2Cl)C2CCCC2)cc1 [Example 63, trifluoroacetate] ): 7.82 to 8.60

* * *

Documented IC50 across a set of compounds
System: Plasmodium falciparum parasite
measurement-notes: Whole cell assay: whole cell activity against the parasite
Format: cell-based
study-conditions: Plasmodium falciparum
Where a name gives a salt, the structure may show the parent alone.

Recorded results for 3 compounds are shown here.
CN(CCc1ccccc1)Cc1ccc(C(=O)NN(c2nc(C#N)ncc2Cl)C2CCCC2)cc1 [Example 62, trifluoroacetate]    15 to 150 nM
CN1CCN(C2CCN(Cc3ccc(C(=O)NN(c4nc(C#N)ncc4Br)C4CCN(C(=O)OCc5ccccc5)CC4)cc3)CC2)CC1 [Example 48]    15 to 150 nM
CN1CCC(CN2CCN(Cc3ccc(C(=O)NN(c4nc(C#N)ncc4Br)C4CCCCC4)cc3)CC2)CC1 [Example 19, trifluoroacetate]    2.5 to 15 nM

Moving on to the next compound.
compound CCCN(C)Cc1ccc(C(=O)NN(c2nc(C#N)ncc2Cl)C2CCCC2)cc1 [Example 55] , IC50 observed: 15 to 150 nM

* * *

measured-on: Falcipain-2 (Plasmodium falciparum, UniProt Q8I6U4)
Sequence (Q8I6U4 244-484): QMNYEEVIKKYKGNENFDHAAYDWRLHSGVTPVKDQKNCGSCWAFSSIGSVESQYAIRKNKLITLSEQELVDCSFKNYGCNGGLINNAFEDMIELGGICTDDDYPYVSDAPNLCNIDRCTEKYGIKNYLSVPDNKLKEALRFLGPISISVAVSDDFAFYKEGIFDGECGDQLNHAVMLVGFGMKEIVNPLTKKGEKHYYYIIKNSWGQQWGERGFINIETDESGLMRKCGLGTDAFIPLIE
measurement-notes: Falcipain-2 enzymatic assay (fluorogenic peptide substrate, quenched endpoint read)
Format: biochemical
study-conditions: parasitic recombinant enzyme, 30 uM H-D-VLR-AFC, pH 5.5, quenched after 60 minutes; read-out: Falcipain-2 (IC50)
Structures can show the parent of a compound that is named as a salt.
endpoint-name: IC50

CC(=O)N1CCC(N(NC(=O)c2ccc(CN3CCN(C)CC3)cc2)c2nc(C#N)ncc2Br)CC1 [Example 37, trifluoroacetate]    < 1 nM

Would you kindly look at the next entry?
Recorded result, CC(C)CCN(C)Cc1ccc(C(=O)NN(c2nc(C#N)ncc2Cl)C2CCCC2)cc1 [Example 63, trifluoroacetate] , IC50: < 1 nM

* * *

Tested on: Plasmodium falciparum parasite
measurement-notes: Whole cell assay: whole cell activity against the parasite
Type: cell-based
study-conditions: Plasmodium falciparum
Counter-ions that a name gives are not always drawn.
endpoint-name: IC50

CN1CCN(Cc2ccc(C(=O)NN(c3nc(C#N)ncc3Cl)C3CCOCC3)cc2)CC1 [Example 67, trifluoroacetate]    15 to 150 nM
CN1CCN(Cc2ccc(-c3cncc(C(=O)NN(c4nc(C#N)ncc4Br)C4CCCC4)c3)cc2)CC1 [Example 45, trifluoroacetate]    15 to 150 nM
CCN(CC)Cc1ccc(C(=O)NN(c2nc(C#N)ncc2Cl)C2CCCC2)cc1 [Example 66, trifluoroacetate]    15 to 150 nM

Entry under test: CN1CCN(Cc2cccc(-c3cncc(C(=O)NN(c4nc(C#N)ncc4Br)C4CCCCC4)c3)c2)CC1 [Example 47, trifluoroacetate] . Its IC50 was 2.5 to 15 nM

For CN1CCCC(CN2CCN(Cc3ccc(C(=O)NN(c4nc(C#N)ncc4Br)C4CCOCC4)cc3)CC2)C1 (stereo not drawn) [Example 31] the compound record lists IC50 as 15 to 150 nM

The measured IC50 associated with CN1CCN(C2CCN(Cc3ccc(C(=O)NN(c4nc(C#N)ncc4Cl)C4CCOCC4)cc3)CC2)CC1 [Example 34, trifluoroacetate] reads 2.5 to 15 nM

The compound listed as CN1CCN(c2ccc(C(=O)NN(c3nc(C#N)ncc3Cl)C3CCCC3)cc2)CC1 [Example 52, trifluoroacetate] has a reported IC50 of 15 to 150 nM

IC50 measured on CN(CCC(O)c1ccccc1)Cc1ccc(C(=O)NN(c2nc(C#N)ncc2Cl)C2CCCC2)cc1 (stereo not drawn) [Example 59, trifluoroacetate] = 15 to 150 nM

Looking up CN1CCN(Cc2ccc(C(=O)NN(CC(C)(C)C)c3nc(C#N)ncc3Br)cc2)CC1 [comparative Example 39, trifluoroacetate, reference compound] , I see its IC50 listed as > 400 nM
